- TESTED TARGET: Env of HIV-1 strain REJO4541.67 (HIV-1)
- EXPERIMENT DESCRIPTION: cell-based or functional assay
MEASURED PROPERTY: neutralization IC50

Task: Identify the reported neutralization IC50 for the following entry. γ20κ19 (antibody, V domains shown) VH: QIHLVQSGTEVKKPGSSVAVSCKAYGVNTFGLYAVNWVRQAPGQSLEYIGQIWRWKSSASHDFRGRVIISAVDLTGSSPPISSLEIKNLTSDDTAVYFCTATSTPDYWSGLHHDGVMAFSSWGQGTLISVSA VL: DIQMTQSPSTLSASVGDTVRISCRASQSITGGWLAWYHQRPGKAPRLLIYRGSRLLGGVPSRFSGSAAGTGFTLTIANLQAEDFGTFYCQQYDTYPGTFGQGTKVEVKR
Output: > 15 µg/mL

Task: Identify the reported neutralization IC50 for the following entry. 8ANC3484 (antibody, V domains shown) VH: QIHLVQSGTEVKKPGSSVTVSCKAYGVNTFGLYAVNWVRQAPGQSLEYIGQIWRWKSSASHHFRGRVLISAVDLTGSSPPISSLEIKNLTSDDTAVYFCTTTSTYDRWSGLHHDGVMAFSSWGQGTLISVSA VL: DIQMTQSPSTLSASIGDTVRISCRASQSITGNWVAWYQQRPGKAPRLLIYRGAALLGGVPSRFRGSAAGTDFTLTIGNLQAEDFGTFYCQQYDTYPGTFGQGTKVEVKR
Output: 0.117 µg/mL

FYI, the data here is from patent US20180171001A1.
